Assay: Placebo controlled, dose escalation pharmacokinetic study of oral (Z)-Endoxifen capsules (serum endoxifen; incl. accumulation ratios and dose linearity)
Type: in vivo, human
Conditions: female, human, serum, po, 1 mg/day, Day 21; 1 mg/day oral (n = 5); read-out: Cmax, Arithmetic Mean
resultType: Cmax (ng/mL)
Report only the number, with the unit ng/mL understood.

// Cmax value for CC/C(=C(\c1ccc(O)cc1)c1ccc(OCCNC)cc1)c1ccccc1 [(Z)-Endoxifen] : 24.6

###

Test: Placebo controlled, dose escalation pharmacokinetic study of oral (Z)-Endoxifen capsules (serum endoxifen; incl. accumulation ratios and dose linearity)
Format: in vivo, human
Settings: female, human, serum, po, 4 mg, Day 21; dose 4 mg oral once daily; Mean, N 6; read-out: volume of distribution (Vd/F)
resultType: Vd/F (L)
Report only the number, with the unit L understood.

// Vd/F value for CC/C(=C(\c1ccc(O)cc1)c1ccc(OCCNC)cc1)c1ccccc1 [(Z)-Endoxifen] : 189

###

Test: Placebo controlled, dose escalation pharmacokinetic study of oral (Z)-Endoxifen capsules (serum endoxifen; incl. accumulation ratios and dose linearity)
Type: in vivo, human
Conditions: female, human, serum, oral, 1 mg; Day 1 hr 10; read-out: Serum concentration, GeoMean
resultType: concentration at 10 h (nM)
Report only the number, with the unit nM understood.

// concentration at 10 h value for CC/C(=C(\c1ccc(O)cc1)c1ccc(OCCNC)cc1)c1ccccc1 [(Z)-Endoxifen] : 21.6

###

Experiment: Placebo controlled, dose escalation pharmacokinetic study of oral (Z)-Endoxifen capsules (serum endoxifen; incl. accumulation ratios and dose linearity)
Type: in vivo, human
Conditions: female, human, serum, oral, 1 mg; Day 1 hr 5; read-out: Serum concentration, GeoMean
resultType: concentration at 5 h

// concentration at 5 h value for CC/C(=C(\c1ccc(O)cc1)c1ccc(OCCNC)cc1)c1ccccc1 [(Z)-Endoxifen] : 23.2 nM

###

Test: Placebo controlled, dose escalation pharmacokinetic study of oral (Z)-Endoxifen capsules (serum endoxifen; incl. accumulation ratios and dose linearity)
Assay type: in vivo, human
Conditions: female, human, serum, oral, 1 mg; Day 1 hr 4; read-out: Serum concentration, Min
resultType: concentration at 4 h (nM)
Report only the number, with the unit nM understood.

// concentration at 4 h value for CC/C(=C(\c1ccc(O)cc1)c1ccc(OCCNC)cc1)c1ccccc1 [(Z)-Endoxifen] : 18.7

###

Assay: Placebo controlled, dose escalation pharmacokinetic study of oral (Z)-Endoxifen capsules (serum endoxifen; incl. accumulation ratios and dose linearity)
Format: in vivo, human
Conditions: female, human, serum, po, 4 mg, Day 1; dose 4 mg oral; GeoMean, N 6; read-out: volume of distribution (Vd/F)
resultType: Vd/F (L)
Report only the number, with the unit L understood.

// Vd/F value for CC/C(=C(\c1ccc(O)cc1)c1ccc(OCCNC)cc1)c1ccccc1 [(Z)-Endoxifen] : 138

###

Assay: Placebo controlled, dose escalation pharmacokinetic study of oral (Z)-Endoxifen capsules (serum endoxifen; incl. accumulation ratios and dose linearity)
Assay type: in vivo, human
Settings: female, human, serum, oral, 2 mg, Day 1; 2 mg; N 6; read-out: Vz/F, Median
resultType: Vd/F (L)
Report only the number, with the unit L understood.

// Vd/F value for CC/C(=C(\c1ccc(O)cc1)c1ccc(OCCNC)cc1)c1ccccc1 [(Z)-Endoxifen] : 118

###

Experiment: Placebo controlled, dose escalation pharmacokinetic study of oral (Z)-Endoxifen capsules (serum endoxifen; incl. accumulation ratios and dose linearity)
Format: in vivo, human
Conditions: female, human, serum, oral, 1 mg, Day 1; 1 mg; N = 5; read-out: Tmax, Mean
resultType: Tmax (h)
Report only the number, with the unit h understood.

// Tmax value for CC/C(=C(\c1ccc(O)cc1)c1ccc(OCCNC)cc1)c1ccccc1 [(Z)-Endoxifen] : 5.62

###

Experiment: Placebo controlled, dose escalation pharmacokinetic study of oral (Z)-Endoxifen capsules (serum endoxifen; incl. accumulation ratios and dose linearity)
Type: in vivo, human
Settings: female, human, serum, oral, 1 mg, Day 21; 1 mg; N = 5; read-out: Cmax, Mean
resultType: Cmax (ng/mL)
Report only the number, with the unit ng/mL understood.

// Cmax value for CC/C(=C(\c1ccc(O)cc1)c1ccc(OCCNC)cc1)c1ccccc1 [(Z)-Endoxifen] : 24.6

###

Test: Placebo controlled, dose escalation pharmacokinetic study of oral (Z)-Endoxifen capsules (serum endoxifen; incl. accumulation ratios and dose linearity)
Format: in vivo, human
Conditions: female, human, serum, po, 4 mg, Day 1; dose 4 mg oral; Mean, N 6; read-out: AUC to last time point
resultType: AUC (ng·h/mL)
Report only the number, with the unit ng·h/mL understood.

// AUC value for CC/C(=C(\c1ccc(O)cc1)c1ccc(OCCNC)cc1)c1ccccc1 [(Z)-Endoxifen] : 1650

###

Assay: Placebo controlled, dose escalation pharmacokinetic study of oral (Z)-Endoxifen capsules (serum endoxifen; incl. accumulation ratios and dose linearity)
Assay type: in vivo, human
Details: female, human, serum, oral, 1 mg; Day 1 hr 12; read-out: Serum concentration, GeoMean
resultType: concentration at 12 h (nM)
Report only the number, with the unit nM understood.

// concentration at 12 h value for CC/C(=C(\c1ccc(O)cc1)c1ccc(OCCNC)cc1)c1ccccc1 [(Z)-Endoxifen] : 17.1

###

Assay: Placebo controlled, dose escalation pharmacokinetic study of oral (Z)-Endoxifen capsules (serum endoxifen; incl. accumulation ratios and dose linearity)
Assay type: in vivo, human
Details: female, human, serum, po, 4 mg, Day 1; dose 4 mg oral; Mean, N 6; read-out: Tmax
resultType: Tmax (h)
Report only the number, with the unit h understood.

// Tmax value for CC/C(=C(\c1ccc(O)cc1)c1ccc(OCCNC)cc1)c1ccccc1 [(Z)-Endoxifen] : 5.56

###

Assay: Placebo controlled, dose escalation pharmacokinetic study of oral (Z)-Endoxifen capsules (serum endoxifen; incl. accumulation ratios and dose linearity)
Assay type: in vivo, human
Conditions: female, human, serum, po, 4 mg, Day 21; dose 4 mg oral once daily; GeoMean, N 6; read-out: Tmax
resultType: Tmax (h)
Report only the number, with the unit h understood.

// Tmax value for CC/C(=C(\c1ccc(O)cc1)c1ccc(OCCNC)cc1)c1ccccc1 [(Z)-Endoxifen] : 4.75

###

Experiment: Placebo controlled, dose escalation pharmacokinetic study of oral (Z)-Endoxifen capsules (serum endoxifen; incl. accumulation ratios and dose linearity)
Type: in vivo, human
Conditions: female, human, serum, po, 4 mg/day, Day 21; 4 mg/day oral (n = 6); read-out: t1/2, Arithmetic Mean (converted)
Text: An objective of the study was to assess the safety and tolerability of oral (Z)-Endoxifen when administered […] orally as a capsule to healthy female volunteers. A secondary objective was to assess the pharmacokinetics of multiple doses of oral (Z)-Endoxifen in the subjects. Generally, healthy female volunteers aged ≥18 years and ≤65 years were enrolled. 24 participants were enrolled in 3 cohorts and will be administered study drug orally. […]
resultType: half-life (h)
Report only the number, with the unit h understood.

// half-life value for CC/C(=C(\c1ccc(O)cc1)c1ccc(OCCNC)cc1)c1ccccc1 [(Z)-Endoxifen] : 45.1

###

Test: Placebo controlled, dose escalation pharmacokinetic study of oral (Z)-Endoxifen capsules (serum endoxifen; incl. accumulation ratios and dose linearity)
Assay type: in vivo, human
Details: female, human, serum, po, 4 mg, Day 1; dose 4 mg oral; Mean, N 6; read-out: volume of distribution (Vd/F)
resultType: Vd/F (L)
Report only the number, with the unit L understood.

// Vd/F value for CC/C(=C(\c1ccc(O)cc1)c1ccc(OCCNC)cc1)c1ccccc1 [(Z)-Endoxifen] : 154

###

Assay: Placebo controlled, dose escalation pharmacokinetic study of oral (Z)-Endoxifen capsules (serum endoxifen; incl. accumulation ratios and dose linearity)
Type: in vivo, human
Conditions: female, human, serum, po, 1 mg/day, Day 1; 1 mg/day oral (n = 5); read-out: Tmax (Range)
resultType: Tmax

// Tmax value for CC/C(=C(\c1ccc(O)cc1)c1ccc(OCCNC)cc1)c1ccccc1 [(Z)-Endoxifen] : 2 to 8.08 h

###

Test: Placebo controlled, dose escalation pharmacokinetic study of oral (Z)-Endoxifen capsules (serum endoxifen; incl. accumulation ratios and dose linearity)
Assay type: in vivo, human
Details: female, human, serum, oral, 1 mg, Day 1; 1 mg; N = 5; read-out: Tmax, Median
resultType: Tmax (h)
Report only the number, with the unit h understood.

// Tmax value for CC/C(=C(\c1ccc(O)cc1)c1ccc(OCCNC)cc1)c1ccccc1 [(Z)-Endoxifen] : 6

###

Assay: Placebo controlled, dose escalation pharmacokinetic study of oral (Z)-Endoxifen capsules (serum endoxifen; incl. accumulation ratios and dose linearity)
Format: in vivo, human
Details: female, human, serum, oral, 1 mg; Day 1 hr 0.5; read-out: Serum concentration, Median
resultType: concentration at 0.5 h (nM)
Report only the number, with the unit nM understood.

// concentration at 0.5 h value for CC/C(=C(\c1ccc(O)cc1)c1ccc(OCCNC)cc1)c1ccccc1 [(Z)-Endoxifen] : 2.68

###

Assay: Placebo controlled, dose escalation pharmacokinetic study of oral (Z)-Endoxifen capsules (serum endoxifen; incl. accumulation ratios and dose linearity)
Assay type: in vivo, human
Conditions: female, human, serum, po, 4 mg/day, Day 21; 4 mg/day oral (n = 6); read-out: Tmax (Range)
resultType: Tmax

// Tmax value for CC/C(=C(\c1ccc(O)cc1)c1ccc(OCCNC)cc1)c1ccccc1 [(Z)-Endoxifen] : 2 to 10 h
